The reported measurements were obtained from the supplement of paper PMC6555819.

test system: RARg homodimer (NR concentration 270 nM); test: PBM binding z-score (relative to random genomic background probes); higher = stronger binding; sequences stand for … in GC…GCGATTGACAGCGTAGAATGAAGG
measurement kind: PBM binding z-score

[[record]]
sequence_record = "TTACCAAGGTGGAGGTCGTTGATCCCTCTGTAGA"
test_system = "RARg homodimer (NR concentration 270 nM)"
measurement_kind = "PBM binding z-score"
measurement = -0.0331

[[record]]
sequence_record = "GCTAGCAGGCCATTTGAGTCACTCAATGACGGGC"
test_system = "RARg homodimer (NR concentration 270 nM)"
measurement_kind = "PBM binding z-score"
measurement = 0.0765

[[record]]
sequence_record = "GCTGTTAGTTGAAAGGGCAACCGAATGATTCTCG"
test_system = "RARg homodimer (NR concentration 270 nM)"
measurement_kind = "PBM binding z-score"
measurement = 1.43

[[record]]
sequence_record = "TCTATTAGTTGATTAGGGGAACCGAAACAGCGGA"
test_system = "RARg homodimer (NR concentration 270 nM)"
measurement_kind = "PBM binding z-score"
measurement = 0.32

[[record]]
sequence_record = "ATCTCTAGGTAATAGTTCAGTGAATCCCGAGGAT"
test_system = "RARg homodimer (NR concentration 270 nM)"
measurement_kind = "PBM binding z-score"
measurement = 1.33

[[record]]
sequence_record = "ACTATTAGTTGAGACGAGGCCAACCGATAGGTTG"
test_system = "RARg homodimer (NR concentration 270 nM)"
measurement_kind = "PBM binding z-score"
measurement = 0.272

[[record]]
sequence_record = "ATCGAAAGGGCGACGAGGTGAGTATACACCGTTT"
test_system = "RARg homodimer (NR concentration 270 nM)"
measurement_kind = "PBM binding z-score"
measurement = 1.28

[[record]]
sequence_record = "TCTTGTAGATCAAGCAGCTTAAGAAAGCCTGAGT"
test_system = "RARg homodimer (NR concentration 270 nM)"
measurement_kind = "PBM binding z-score"
measurement = -0.59

[[record]]
sequence_record = "GATACAGGGTCAGCTAGAGGCCAGAGTTTGGAAA"
test_system = "RARg homodimer (NR concentration 270 nM)"
measurement_kind = "PBM binding z-score"
measurement = 4.92

[[record]]
sequence_record = "ATCTCGAGGTAAAGTTCAGTGAAAGATCGATAGA"
test_system = "RARg homodimer (NR concentration 270 nM)"
measurement_kind = "PBM binding z-score"
measurement = 2.72

[[record]]
sequence_record = "TAGCCTAGGTCAGTCAGGGGCCAGTATAGAAAGC"
test_system = "RARg homodimer (NR concentration 270 nM)"
measurement_kind = "PBM binding z-score"
measurement = 3.75

[[record]]
sequence_record = "AGTCAAAGTTCACTAGATAACGTAAGATTCAGCT"
test_system = "RARg homodimer (NR concentration 270 nM)"
measurement_kind = "PBM binding z-score"
measurement = 5.79

[[record]]
sequence_record = "GTACCTAGGTGAATAGGTCGTTGATGAGTAGGCG"
test_system = "RARg homodimer (NR concentration 270 nM)"
measurement_kind = "PBM binding z-score"
measurement = 0.79

[[record]]
sequence_record = "TCTGCTAGGTCAAGGATGGTCAGCTAATCTGCTA"
test_system = "RARg homodimer (NR concentration 270 nM)"
measurement_kind = "PBM binding z-score"
measurement = 4.85

[[record]]
sequence_record = "CCTGCTGGGCCAAGGTCATTGATCAGTCAAAGCA"
test_system = "RARg homodimer (NR concentration 270 nM)"
measurement_kind = "PBM binding z-score"
measurement = 2.93

[[record]]
sequence_record = "CCTTAAGGGTCACTGACAGGTTATAGCATTTGGA"
test_system = "RARg homodimer (NR concentration 270 nM)"
measurement_kind = "PBM binding z-score"
measurement = 6.91

[[record]]
sequence_record = "GGAACGAGGGCATTCGAGTTGACAGCATGGCGAT"
test_system = "RARg homodimer (NR concentration 270 nM)"
measurement_kind = "PBM binding z-score"
measurement = 1.69

[[record]]
sequence_record = "TCATATAGGTAAAAGGTGAAAGTCGGTGTGGTAA"
test_system = "RARg homodimer (NR concentration 270 nM)"
measurement_kind = "PBM binding z-score"
measurement = 1.17

